Can you tell me HLM for the items I'm about to list?
test: Microsomal stability assay, human liver microsomes; details: human liver microsomal data;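 further: pooled human liver microsomes at 0.25 mg/mL with 1 µM compound and NADPH at 37 °C, pH 7.4, for 30 min, unchanged parent quantified by LC-MS/MS against the 0 min sample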
Your answer should be a plain number; it is taken to be in µL/min/mg.

Entry C#Cc1cc(F)cc(C[C@H](NC(=O)[C@@H](C)OC)[C@H](O)CN[C@H]2CC3(CCC3)Oc3ncc(CC(C)C)cc32)c1 : reported HLM = ?
48

Entry CO[C@H](C)C(=O)N[C@@H](Cc1cc(F)cc(F)c1)[C@H](O)CN[C@H]1CC2(CCC2)Oc2c1cc(CC(C)C)cc2-n1ccnc1 : reported HLM = ?
28

Entry COCC(=O)N[C@@H](Cc1ccc(F)cc1)[C@H](O)CN[C@H]1CC2(CCC2)Oc2c(-c3cnc[nH]3)cc(CC(C)C)cc21 : reported HLM = ?
143

Entry CO[C@H](C)C(=O)N[C@@H](Cc1cc(F)cc(-c2nccs2)c1)[C@H](O)CN[C@H]1CC2(CCC2)Oc2ncc(CC(C)C)cc21 : reported HLM = ?
85

Entry COCC(=O)N[C@@H](Cc1cc(F)cc(F)c1)[C@H](O)CN[C@H]1CC2(CCC2)Oc2c(-c3cccnc3)cc(CC(C)(C)C)cc21 : reported HLM = ?
399

Entry COCC(=O)N[C@@H](Cc1cccc(-c2nccs2)c1)[C@H](O)CN[C@H]1CC2(CCC2)Oc2ncc(CC(C)(C)F)cc21 : reported HLM = ?
32

----------
target: Beta Secretase enzyme (BACE) (Homo sapiens, UniProt P56817); assay: In vitro enzymatic BACE FRET (fluorescence resonance energy transfer) assay; assay type: biochemical; conditions: BACE enzyme assay, IC50's in uM; read-out: BACE1 FRET assay;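 further: fluorescence read after 1 h with 50 nM quenched peptide substrate spanning the BACE cleavage site, in pH 4.2 acetate buffer containing 10% DMSO and nonionic detergent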
Sequence (P56817 46-501): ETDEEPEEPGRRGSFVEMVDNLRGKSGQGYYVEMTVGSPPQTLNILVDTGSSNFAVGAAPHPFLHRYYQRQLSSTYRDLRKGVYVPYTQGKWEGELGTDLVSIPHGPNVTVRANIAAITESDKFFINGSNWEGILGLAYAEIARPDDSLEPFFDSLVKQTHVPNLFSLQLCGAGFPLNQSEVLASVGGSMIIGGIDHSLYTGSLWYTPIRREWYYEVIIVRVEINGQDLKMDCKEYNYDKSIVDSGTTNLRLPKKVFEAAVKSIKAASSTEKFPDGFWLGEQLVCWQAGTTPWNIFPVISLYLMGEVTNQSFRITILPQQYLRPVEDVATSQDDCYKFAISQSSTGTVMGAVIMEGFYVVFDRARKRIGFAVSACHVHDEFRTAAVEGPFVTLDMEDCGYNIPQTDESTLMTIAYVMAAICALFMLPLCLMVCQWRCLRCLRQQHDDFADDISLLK
Can you tell me IC50 for the items I'm about to list?

Entry COCC(=O)N[C@@H](Cc1cccc(-c2nccs2)c1)[C@H](O)CN[C@H]1CC2(CCC2)Oc2ncc(CC(C)C)cc21 [Example 757] : reported IC50 = ?
0.007 µM

Entry C#CCCC(=O)N[C@@H](Cc1ccc2c(c1)OCO2)[C@H](O)CN[C@H]1CC2(CCC2)Oc2ncc(CC(C)(C)C)cc21 [compound 843] : reported IC50 = ?
0.044 µM

Entry C#Cc1cccc(C[C@H](NC(=O)COC)[C@H](O)CN[C@H]2C[C@@]3(CCOC3)Oc3ncc(CC(C)(C)C)cc32)c1 [compound 825] : reported IC50 = ?
0.005 µM

Entry CCO[C@H](C)C(=O)N[C@@H](Cc1ccc2c(c1)OCO2)[C@H](O)CN[C@H]1CC2(CCC2)Oc2ncc(CC(C)C)cc21 [compound 808] : reported IC50 = ?
0.138 µM

Entry CC(C)(C)Cc1cnc2c(c1)[C@@H](NC[C@@H](O)[C@H](Cc1cccc(-c3nccs3)c1F)NC(=O)[C@@H]1CCCO1)CC1(CCC1)O2 [compound 910] : reported IC50 = ?
0.079 µM

Entry COCC(=O)N[C@H](Cc1cccc(-c2nccs2)c1)[C@@H](O)CN[C@H]1CC2(CCC2)Oc2ncc(C3CCCC3)cc21 [compound 810] : reported IC50 = ?
4.49 µM

Entry Cc1nc(CN2CCO[C@@H](C(=O)N[C@@H](Cc3ccc(F)cc3)[C@H](O)CN[C@H]3CC4(CCC4)Oc4ncc(CC(C)(C)C)cc43)C2)cs1 [compound 755] : reported IC50 = ?
0.012 µM

Entry C#Cc1cccc(C[C@H](NC(=O)COC)[C@H](O)CN[C@H]2CC3(CCC3)Oc3ncc(CC(C)(F)F)cc32)c1 [Example 829] : reported IC50 = ?
0.007 µM

Entry COCC(=O)N[C@@H](Cc1cc(F)cc(-c2nccs2)c1)[C@H](O)CN[C@@]1(C)CC2(CCC2)Oc2ncc(CC(C)(C)C)cc21 [compound 866] : reported IC50 = ?
0.177 µM

Entry COC(OC)C(=O)N[C@@H](Cc1cccc(C#N)c1)[C@H](O)CN[C@H]1CC2(CCC2)Oc2ncc(CC(C)(C)C)cc21 [compound 798] : reported IC50 = ?
0.006 µM

Entry COCC(=O)N[C@@H](Cc1cc(F)cc(Cl)c1)[C@H](O)CN[C@H]1CC2(CCC2)Oc2ncc(CC(C)(F)F)cc21 [compound 799] : reported IC50 = ?
0.008 µM

Entry COCC(=O)N[C@@H](Cc1cc(Br)cc(Br)c1)[C@H](O)CN[C@H]1CC2(CCC2)Oc2ncc(CC(C)(C)C)cc21 [compound 892] : reported IC50 = ?
0.07 µM

Entry CCOCC(=O)N[C@@H](Cc1ccc(F)c(-c2nccs2)c1)[C@H](O)CN[C@H]1CC2(CCC2)Oc2ncc(CC(C)(C)C)cc21 [compound 904] : reported IC50 = ?
0.004 µM

Entry C#Cc1cc(C[C@H](NC(=O)COCC)[C@H](O)CN[C@H]2CC3(CCC3)Oc3ncc(CC(C)(C)C)cc32)ccc1F [Example 837] : reported IC50 = ?
0.007 µM

Entry COCC(=O)N[C@@H](Cc1cc(F)cc(-c2nccs2)c1)[C@H](O)CNC1CC2(CCC2)Oc2ncc(CC(C)(F)F)cc21 (stereo partly shown) [Example 764] : reported IC50 = ?
0.011 µM

Entry CC(C)(C)Cc1cnc2c(c1)[C@@H](NC[C@@H](O)[C@H](Cc1cc(F)cc(-c3nccs3)c1)NC(=O)C1CCC1)CC1(CCC1)O2 [Example 875] : reported IC50 = ?
0.006 µM

Entry C#Cc1cccc(C[C@H](NC(=O)[C@@H](C)OC)[C@H](O)CN[C@H]2CC3(CCC3)Oc3ncc(CC(C)C)cc32)c1 [Example 777] : reported IC50 = ?
0.006 µM

Entry C#Cc1cccc(C[C@H](NC(=O)COC)[C@H](O)CN[C@H]2CC3(CCC3)Oc3ncc(CC(C)(C)C(F)(F)F)cc32)c1 [compound 838] : reported IC50 = ?
0.01 µM

Entry CCOCC(=O)N[C@@H](Cc1cccc(-c2ncco2)c1)[C@H](O)CN[C@H]1CC2(CCC2)Oc2ncc(CC(C)(C)C)cc21 [compound 901] : reported IC50 = ?
0.01 µM

Entry CC(C)C(=O)N[C@@H](Cc1cc(F)cc(-c2nccs2)c1)[C@H](O)CN[C@H]1CC2(CCC2)Oc2ncc(CC(C)(C)C)cc21 [Example 883] : reported IC50 = ?
0.021 µM

Entry COCC(=O)N[C@@H](Cc1cc(F)cc(-c2nccs2)c1)C(=O)CN[C@H]1CC2(CCC2)Oc2ncc(CC(C)C)cc21 [compound 918] : reported IC50 = ?
0.0164 µM

Entry COCC(=O)N[C@@H](Cc1cccc(-c2nccs2)c1)[C@H](O)CN[C@@H]1C[C@@]2(CCOC2)Oc2ncc(CC(C)(C)C)cc21 [compound 827] : reported IC50 = ?
0.006 µM

Entry CC#Cc1cnc2c(c1)[C@@H](NC[C@@H](O)[C@H](Cc1cccc(-c3nccs3)c1)NC(=O)COC)CC1(CCC1)O2 [compound 811] : reported IC50 = ?
0.309 µM

Entry CCOCC(=O)N[C@@H](Cc1cc(F)cc(-c2nccs2)c1)[C@H](O)CN[C@H]1CC2(CCC2)Oc2ncc(CC(C)(C)C)cc21 [compound 862] : reported IC50 = ?
0.004 µM

Entry COCC(=O)N[C@@H](Cc1cccc(-n2cccn2)c1)[C@H](O)CN[C@H]1CC2(CCC2)Oc2ncc(CC(C)(C)C)cc21 [compound 854] : reported IC50 = ?
0.007 µM

----------
molecular target: UniProt P10635; assay: CYP2D6 inhibition assay (bufuralol, pooled human liver microsomes); settings: 2D6 IC50 (uM), CYP enzyme inhibition
Sequence (P10635 whole entry): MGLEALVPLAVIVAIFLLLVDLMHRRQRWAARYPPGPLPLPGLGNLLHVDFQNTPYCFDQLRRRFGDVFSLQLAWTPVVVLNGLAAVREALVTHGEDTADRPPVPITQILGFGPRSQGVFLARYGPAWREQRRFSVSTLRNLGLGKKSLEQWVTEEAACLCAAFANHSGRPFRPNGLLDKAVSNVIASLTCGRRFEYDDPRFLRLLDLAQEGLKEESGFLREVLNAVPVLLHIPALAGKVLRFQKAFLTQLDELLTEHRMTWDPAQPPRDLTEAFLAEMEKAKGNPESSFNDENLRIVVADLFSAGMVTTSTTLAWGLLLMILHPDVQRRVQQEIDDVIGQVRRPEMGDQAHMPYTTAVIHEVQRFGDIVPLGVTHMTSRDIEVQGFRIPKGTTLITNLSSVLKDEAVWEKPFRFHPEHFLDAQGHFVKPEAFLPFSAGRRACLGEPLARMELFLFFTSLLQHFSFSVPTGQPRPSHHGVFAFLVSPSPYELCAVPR
Measured Property: IC50 (µM)
Your answer should be a plain number; it is taken to be in µM.

Entry CO[C@H](C)C(=O)N[C@@H](Cc1cccc(F)c1)[C@H](O)CN[C@H]1CC2(CCC2)Oc2c1cc(CC(C)(C)C)nc2-n1ccnc1 [compound 507] : reported IC50 = ?
1.9

Entry C#Cc1cccc(C[C@H](NC(=O)C(OC)OC)[C@H](O)CN[C@H]2CC3(CCC3)Oc3ncc(CC(C)(C)C)cc32)c1 [Example 844] : reported IC50 = ?
1.5

Entry COCC(=O)N[C@@H](Cc1ccc(-c2nccs2)c(F)c1)[C@H](O)CN[C@H]1CC2(CCC2)Oc2ncc(CC(C)C)cc21 [compound 787] : reported IC50 = ?
0.8

Entry COCC(=O)N[C@@H](Cc1ccc(F)cc1)[C@H](O)CN[C@H]1CC2(CCC2)Oc2c1cc(CC(C)(C)C)nc2-c1c[nH]cn1 [Example 529] : reported IC50 = ?
0.7

Entry CO[C@H](C)C(=O)N[C@@H](Cc1cccc(F)c1)[C@H](O)CN[C@H]1CC2(CCC2)Oc2c1cc(CC(C)C)cc2-n1ccnc1 [Example 521] : reported IC50 = ?
1.9
